Reported inhibition by item:
- TEST_SYSTEM: Leucine aminopeptidase (Plasmodium falciparum (isolate 3D7)) (UniProt Q8IL11)
- Sequence (Q8IL11 whole entry, looked up): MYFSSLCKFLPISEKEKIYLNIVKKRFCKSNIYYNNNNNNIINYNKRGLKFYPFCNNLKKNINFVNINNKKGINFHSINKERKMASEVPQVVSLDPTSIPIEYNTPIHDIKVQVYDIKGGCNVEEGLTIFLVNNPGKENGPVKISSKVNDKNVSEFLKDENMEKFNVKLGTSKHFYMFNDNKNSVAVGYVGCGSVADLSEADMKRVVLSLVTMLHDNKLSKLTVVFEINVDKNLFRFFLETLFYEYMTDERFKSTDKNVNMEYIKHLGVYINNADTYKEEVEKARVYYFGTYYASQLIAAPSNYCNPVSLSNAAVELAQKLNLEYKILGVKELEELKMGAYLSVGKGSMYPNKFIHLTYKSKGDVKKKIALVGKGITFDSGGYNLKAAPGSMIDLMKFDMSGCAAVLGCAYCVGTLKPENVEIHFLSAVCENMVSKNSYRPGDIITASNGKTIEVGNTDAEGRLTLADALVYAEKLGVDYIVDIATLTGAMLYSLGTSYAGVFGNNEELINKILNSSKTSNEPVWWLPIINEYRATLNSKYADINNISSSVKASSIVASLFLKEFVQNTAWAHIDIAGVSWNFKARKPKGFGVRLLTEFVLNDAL
- METHOD: P. falciparum M17LAP inhibitors, primary screen, biochemical, fluorogenic H-Leu-NHMec substrate, 1536-well (AID 1619);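 further: plate controls were full reaction with DMSO carrier for no effect and no enzyme background for full effect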
- RUN_PARAMETERS: recombinant M17LAP, H-Leu-NHMec fluorogenic kinetic assay; at 30 µM; hits give high values
Hit rate of the full screen: of about 220,000 compounds, about 830 (0.38%) were called active. These entries were drawn from the full list. Measured potencies and affinities stand elsewhere.
RECORDED_METRIC: inhibition (%)

INSERT INTO results (molecule, assay_result) VALUES
  ('COc1ccc(NC(=O)CSc2nncn2C)c([N+](=O)[O-])c1', 41.3),
  ('Cc1cc(C(=O)OCC(=O)N2CC(C)CC(C)C2)c(C)o1 (stereo unspecified)', 40.9),
  ('COc1ccc(NC(=O)CSc2ccccc2)c([N+](=O)[O-])c1', 13),
  ('COC(=O)c1[nH]c2c(c1C)C(=O)CCC2', 6.36),
  ('Cc1ccc(C)c2nc(SCC(=O)N3CCCc4ccccc43)c(C#N)cc12', -4.2),
  ('CCOC(=O)c1nc(Nc2ccc(C(=O)O)cc2)c2ccccc2n1', 23.8);

// provenance: PubChem BioAssay AID1619
